Record form. Attribute: pIC50. Fill in for each entry.
- system.under.test: SCD5 (Homo sapiens)
- Construct: host or cells: S. cerevisiae ole1Δ strain (W303 pdr1Δ pdr3Δ background), plasmid pRS316 with TDH3 promoter and CYC1 terminator
- assay.method.text: Growth inhibition of humanized yeast strain expressing SCD5 as sole desaturase
- Type: cell-based
- condition.label: humanized yeast strain expressing SCD5
pIC50: −log10 of the molar value.

Answered cases to consult:
INSERT INTO measurements (compound, reported_measurement) VALUES
  ('O=C(NCC(=O)N1CCC(c2nc(-c3ccc4c(c3)OC(F)(F)O4)no2)CC1)c1ccccc1', '< 4.35'),
  ('Cc1ccc(N2CC(C(=O)N3CCC(c4nc(N5CC6(COC6)C5)no4)CC3)CC2=O)nc1 (stereo not shown)', '< 4.35'),
  ('Cc1nn(C(C)C)c2cc(-c3noc(C4CCN(C(=O)CNC(=O)c5ccccc5)CC4)n3)ccc12', '< 4.35'),
  ('Cc1noc2cc(-c3noc(C4CCN(C(=O)OC5(C)CC5)CC4)n3)ccc12', '< 4.35');

For every record below, what is its pIC50?
1. CC(C)n1ncc2ccc(-c3nc(C4CCN(C(=O)CC5(C)CC5)CC4)no3)cc21
2. CC(C)n1ncc2ccc(-c3nc(C4CCNC4)no3)cc21 (stereo not shown)
3. COc1ccc(-c2noc(C3CCN(C(=O)c4cccc(C(C)C)c4)CC3)n2)cc1OC

OUT:
1: 7.72; 2: < 4.35; 3: < 4.35

For every record below, what is its pIC50?
1. Cc1nn(C)c2cc(-c3noc(C4CCN(C(=O)CNC(=O)c5ccsc5)CC4)n3)ccc12
2. CCOc1ccc(-c2noc(N3CCC(C(=O)N4CCCC(c5ccccc5)C4)CC3)n2)cc1OC (stereo not shown)
3. CC(C)n1ncc2ccc(-c3noc(C4CCN(C(=O)c5ccc(Cl)cc5F)CC4)n3)cc21
4. CC(CF)n1ncc2ccc(-c3noc(C4CCN(C(=O)CC5(C)CC5)CC4)n3)cc21 (stereo not shown)
5. CC(C)n1ncc2ccc(-c3noc(C4CCN(C(=O)[C@@H]5CC(=O)N(c6cccc(C#N)c6)C5)CC4)n3)cc21
6. O=C(c1ccccc1)N1CCC(c2nc(-c3ccc4cnn(C5COC5)c4c3)no2)CC1
7. CCc1c2ccc(-c3noc(C4CCN(C(=O)CNC(=O)c5ccccc5)CC4)n3)cc2nn1C
8. Cc1ccc(N2CC(C(=O)N3CCC(c4nc(-c5ccccc5)no4)CC3)CC2=O)cc1C (stereo not shown)

OUT:
1: < 4.35; 2: < 4.35; 3: 5.48; 4: 5.74; 5: < 4.35; 6: 5.37; 7: < 4.35; 8: < 4.35

IN: Lab note: need pIC50 with SCD5 (Homo sapiens) for entry Cc1nn(C)c2cc(-c3noc(C4CCN(C(=O)CC5CN(C(=O)OC(C)(C)C)C5)CC4)n3)ccc12 , please look it up.
OUT: 4.41

----------
Record form. Attribute: IC50. Fill in for each entry.
- system.under.test: Ole1 (Saccharomyces cerevisiae)
- Sequence (P21147 whole entry): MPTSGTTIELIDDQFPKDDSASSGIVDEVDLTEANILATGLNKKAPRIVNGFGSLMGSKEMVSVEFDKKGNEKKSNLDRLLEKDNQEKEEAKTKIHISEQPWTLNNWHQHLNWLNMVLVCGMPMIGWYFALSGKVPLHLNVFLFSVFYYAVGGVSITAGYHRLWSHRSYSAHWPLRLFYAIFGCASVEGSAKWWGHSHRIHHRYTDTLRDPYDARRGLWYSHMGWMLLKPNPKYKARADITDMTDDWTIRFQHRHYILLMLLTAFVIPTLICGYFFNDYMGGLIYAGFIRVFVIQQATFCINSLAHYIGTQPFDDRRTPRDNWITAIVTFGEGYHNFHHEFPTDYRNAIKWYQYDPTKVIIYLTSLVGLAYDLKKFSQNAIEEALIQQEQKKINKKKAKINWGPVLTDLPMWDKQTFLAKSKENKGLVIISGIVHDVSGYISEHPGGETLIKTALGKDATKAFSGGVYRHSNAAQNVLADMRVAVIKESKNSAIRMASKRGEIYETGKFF
- assay.method.text: Growth inhibition of yeast strain expressing Ole1 as sole desaturase
- condition.label: yeast strain expressing Ole1 as sole desaturase

INSERT INTO results (molecule, reported_measurement) VALUES
  ('COc1ccc(-c2noc(CCNC(=O)CNC(=O)c3ccccc3)n2)cc1OC [Compound 484]', '> 45 µM'),
  ('Cc1nn(C)c2cc(-c3noc(C4CCN(C(=O)CNC(=O)c5ccccc5C(F)(F)F)CC4)n3)ccc12 [Compound 271]', '> 45 µM'),
  ('CCOc1ncc(-c2noc(C3CCN(C(=O)CN4Cc5ccccc5C4=O)CC3)n2)cc1OC [Compound 131]', '25.8 µM');

Field: next molecule
IN: Item Cc1nn(C)c2cc(-c3noc(C4CCN(C(=O)[C@H]5CC(=O)N(c6cccc(C#N)c6)C5)CC4)n3)ccc12 [Compound 305] has what recorded IC50?
OUT: > 45 µM

----------
Record form. Attribute: pIC50. Fill in for each entry.
- system.under.test: SCD1 (Homo sapiens, UniProt O00767)
- Construct: host or cells: S. cerevisiae ole1Δ strain (W303 pdr1Δ pdr3Δ background), plasmid pRS316 with TDH3 promoter and CYC1 terminator
- assay.method.text: Growth inhibition of humanized yeast strain expressing SCD1 as sole desaturase
- Format: cell-based
- condition.label: humanized yeast strain, 40 h
pIC50: −log10 of the molar value.

Answered cases to consult:
INSERT INTO assay_data (compound, reported_measurement) VALUES
  ('COC(=O)N1CCN(c2noc(-c3ccc4cnn(C5CN(C)C5)c4c3)n2)CC1 [Compound 960]', 4.69),
  ('CO[C@H]1C[C@@H](n2ncc3ccc(-c4noc(C5CCN(C(=O)OC(C)(C)C)CC5)n4)cc32)C1 [Compound 867]', '< 4.35'),
  ('CCC(=O)N1CCN(c2noc(-c3ccnc(NC4COC4)c3)n2)CC1 [Compound 978]', '< 4.35');

IN: Item CCC(=O)N1CCC(c2noc(-c3cc(F)c4cnn(C5COC5)c4c3)n2)CC1 [Compound 1072] has what recorded pIC50?
OUT: < 4.35

----------
- system.under.test: SCD1 (Homo sapiens, UniProt O00767)
- Construct: host or cells: S. cerevisiae ole1Δ strain (W303 pdr1Δ pdr3Δ background), plasmid pRS316 with TDH3 promoter and CYC1 terminator
- Sequence (O00767 1-359): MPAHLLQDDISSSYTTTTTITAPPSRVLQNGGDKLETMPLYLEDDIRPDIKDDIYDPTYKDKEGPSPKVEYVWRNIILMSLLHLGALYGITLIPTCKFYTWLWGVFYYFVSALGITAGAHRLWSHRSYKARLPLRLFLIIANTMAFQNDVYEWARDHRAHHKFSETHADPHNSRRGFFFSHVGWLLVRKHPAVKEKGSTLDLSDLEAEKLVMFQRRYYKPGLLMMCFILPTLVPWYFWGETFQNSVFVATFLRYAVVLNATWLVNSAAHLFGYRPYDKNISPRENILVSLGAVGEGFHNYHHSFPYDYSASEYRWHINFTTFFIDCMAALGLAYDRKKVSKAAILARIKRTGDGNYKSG
- assay.method.text: Growth inhibition of humanized yeast strain expressing SCD1 as sole desaturase
- Format: cell-based
- condition.label: humanized yeast strain expressing SCD1
measured.attribute: SCD1 % Max Inhibition (%)
Answers are plain numbers, in %.

Answered cases to consult:
INSERT INTO assay_data (molecule, reported_measurement) VALUES
  ('Cc1nn(C)c2cc(-c3nsc(C4CCN(C(=O)CNC(=O)c5ccccc5)CC4)n3)ccc12 [Compound 250]', 86.09),
  ('CC(C)n1ncc2ccc(-c3noc(C4CCN(C(=O)COc5ccccc5)CC4)n3)cc21 [Compound 358]', 59.61);

For every record below, what is its SCD1 % Max Inhibition?
1. Cc1nn(C)c2cc(-c3noc(C4CCN(C(=O)c5cc(F)ccc5C(F)(F)F)CC4)n3)ccc12 [Compound 292]
2. COc1ccc(-c2csc(C3CCN(C(=O)CNC(=O)c4ccccc4)CC3)n2)cc1OC [Compound 38]

OUT:
1: 9.5; 2: 72.81

----------
- system.under.test: SCD1 (Homo sapiens)
- Construct: host or cells: S. cerevisiae ole1Δ strain (W303 pdr1Δ pdr3Δ background), plasmid pRS316 with TDH3 promoter and CYC1 terminator
- assay.method.text: Growth inhibition of humanized yeast strain expressing SCD1 as sole desaturase
- Format: cell-based
- condition.label: humanized yeast strain expressing SCD1
- Protocol: Strain oleΔ (yeast ole1 deletion mutant) was constructed by deleting OLE1 with NAT-MX6 in BY4741, amplifying the deletion cassette from the genomic DNA of the resulting strain with primers flanking the ORF by 1000 bp upstream and downstream, transforming the resulting deletion cassette into W303 pdr1Δ pdr3Δ, and plating transformants on YPD media containing G418 (200 μg/mL) and nourseothricin ([…]) with 0.01% TWEEN®-20 and 0.5 mM oleic and palmitoleic acids. […]
Record form. Attribute: SCD1 % Max Inhibition. Fill in for each entry.
Numbers only, in %.

INSERT INTO results (compound, system_under_test, output_unit, reported_measurement) VALUES
  ('COc1ccc(-c2noc(C3CCN(C(=O)CNC(C)=O)CC3)n2)cc1OC', 'SCD1 (Homo sapiens)', '%', 70.27);

For every record below, what is its SCD1 % Max Inhibition?
1. COc1ccc(-c2noc(C3CCN(C(=O)[C@@H](C)NC(=O)c4ccccc4)CC3)n2)cc1OC (single isomer, unassigned)
2. COC(=O)N1CCC(c2nc(-c3ccc4c(C)nn(C)c4c3)no2)CC1

OUT:
[72.03, 67.9]

----------
- system.under.test: SCD5 (Homo sapiens, UniProt Q86SK9)
- Construct: host or cells: S. cerevisiae ole1Δ strain (W303 pdr1Δ pdr3Δ background), plasmid pRS316 with TDH3 promoter and CYC1 terminator
- Sequence (Q86SK9 1-330): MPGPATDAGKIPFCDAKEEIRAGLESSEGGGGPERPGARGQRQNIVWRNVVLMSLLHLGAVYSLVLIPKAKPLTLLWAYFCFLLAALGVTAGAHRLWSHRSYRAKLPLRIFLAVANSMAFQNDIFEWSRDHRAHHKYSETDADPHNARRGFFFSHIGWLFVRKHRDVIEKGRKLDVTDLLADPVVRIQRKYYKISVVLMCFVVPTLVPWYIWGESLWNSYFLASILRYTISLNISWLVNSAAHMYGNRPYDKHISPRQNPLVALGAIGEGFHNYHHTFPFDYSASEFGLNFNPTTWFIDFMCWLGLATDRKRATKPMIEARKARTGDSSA
- assay.method.text: Growth inhibition of humanized yeast strain expressing SCD5 as sole desaturase
- Type: cell-based
- condition.label: humanized yeast strain expressing SCD5
measured.attribute: IC50

INSERT INTO results (compound, measured_attribute, reported_measurement) VALUES
  ('CC(C)n1ncc2ccc(-c3noc(N4CCN(C(=O)OC5(C)CC5)CC4)n3)cc21 [Compound 496]', 'IC50', '0.445 µM'),
  ('Cc1nn(C)c2cc(-c3noc(C4CCN(C(=O)CNC(=O)c5ccsn5)CC4)n3)ccc12 [Compound 226]', 'IC50', '> 45 µM'),
  ('Cc1nn(C)c2cc(-c3noc(N4CCN(C(=O)c5cc(F)ccc5Cl)CC4)n3)ccc12 [Compound 278]', 'IC50', '> 45 µM'),
  ('CC(C)n1ncc2ccc(-c3noc(C4CCN(S(=O)(=O)c5ccccc5Cl)CC4)n3)cc21 [Compound 540]', 'IC50', '> 45 µM'),
  ('Cn1c(=O)n(C)c2cc(-c3noc(C4CCN(C(=O)[C@@H](CO)NC(=O)c5ccccc5)CC4)n3)ccc21 [Compound 214]', 'IC50', '> 45 µM'),
  ('CC(C)n1ncc2ccc(-c3noc(C4CCN(C(=O)CNC(=O)c5ccc(F)cc5)CC4(F)F)n3)cc21 (centres unmarked) [Compound 520]', 'IC50', '> 45 µM'),
  ('CCN1C(=O)COc2ccc(-c3nc(C4(c5ccccc5)CC4)no3)cc21 [Compound 159]', 'IC50', '13.9 µM'),
  ('Cc1nn(C)c2cc(-c3noc(C4CCN(C(=O)Oc5ccccc5)CC4)n3)ccc12 [Compound 272]', 'IC50', '> 45 µM');

For every record below, what is its IC50?
1. Cc1nn(C)c2cc(-c3noc([C@@H]4CCN(C(=O)CNC(=O)c5ccccc5)CC4(F)F)n3)ccc12 [Compound 577]
2. CC(C)n1ncc2ccc(-c3noc(N4C[C@H]5CN(C(=O)CC(C)(C)C)C[C@H]5C4)n3)cc21 [Compound 497]
3. Cc1ncc2ccc(-c3noc(C4CCN(C(=O)C5CC(=O)N(c6ccccc6)C5)CC4)n3)cn12 (centres unmarked) [Compound 216]
4. COc1ccc(-c2noc(C3CCN(C(=O)[C@@H]4CC(=O)N(c5ccc(C)c(C)c5)C4)CC3)n2)cc1 (single isomer, unassigned) [Compound 63]
5. Cc1nn(C)c2cc(-c3noc(C4CCN(C(=O)CNC(=O)c5ccccc5)CC4)n3)ncc12 [Compound 114]
6. COc1ccc(-c2noc(C3CCN(C(=O)CNC(=O)c4ccccc4)CC3)n2)cc1 [compound 10]

OUT:
1. > 45 µM
2. 11.3 µM
3. > 45 µM
4. > 45 µM
5. > 45 µM
6. > 45 µM
